Study Target: acetylcholinesterase enzyme from electric eel (Electrophorus electricus, UniProt O42275)
Construct: purchased Sigma-Aldrich CAS Number 9000-81-1 (catalogue number not given)
Sequence (O42275 24-633): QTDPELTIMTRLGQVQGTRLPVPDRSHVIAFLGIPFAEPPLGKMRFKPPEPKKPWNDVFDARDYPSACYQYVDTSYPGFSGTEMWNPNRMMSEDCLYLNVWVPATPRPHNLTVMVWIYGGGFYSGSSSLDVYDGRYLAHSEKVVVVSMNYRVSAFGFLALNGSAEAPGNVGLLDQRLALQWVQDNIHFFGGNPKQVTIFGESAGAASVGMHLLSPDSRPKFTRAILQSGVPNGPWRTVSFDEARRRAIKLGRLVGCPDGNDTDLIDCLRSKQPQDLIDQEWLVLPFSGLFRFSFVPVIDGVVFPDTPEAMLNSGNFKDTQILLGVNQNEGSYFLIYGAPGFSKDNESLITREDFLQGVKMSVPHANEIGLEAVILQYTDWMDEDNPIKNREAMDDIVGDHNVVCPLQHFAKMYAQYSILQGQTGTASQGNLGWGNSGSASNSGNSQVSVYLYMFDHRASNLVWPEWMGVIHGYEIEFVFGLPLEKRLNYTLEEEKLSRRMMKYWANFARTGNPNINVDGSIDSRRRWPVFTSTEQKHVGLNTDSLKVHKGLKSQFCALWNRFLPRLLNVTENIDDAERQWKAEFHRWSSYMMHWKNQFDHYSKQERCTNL
Procedure Summary: Acetylcholinesterase (AChE) inhibitory assay (DTNB/acetylthiocholine iodide, absorbance at 412 nm)
Assay type: biochemical
Cond: Table 1; read-out: AChE Inhibition IC50
Method: The in vitro cholinesterase inhibitory activity of the 14 synthesized spiro-oxindole derivatives (IIa–n) were evaluated. […] Galantamine was used as a positive control for comparison. Acetylcholinesterase (AChE) inhibitory assay. […] The initial screening was carried out at 50 μg/mL of test samples in 1% DMSO. Absorbance of the test samples was corrected by subtracting the absorbance of their respective blank. […]
Reported Property: IC50 (µM)
Field format: number, assumed µM, no unit text.

// query Provide IC50, system acetylcholinesterase enzyme from electric eel (Electrophorus electricus, UniProt O42275), entry O=C(c1ccc(F)cc1)C1C(c2cc3ccccc3s2)C2C3CCCCC3CN2[C@@]12C(=O)Nc1ccc(Cl)cc12 (stereo partly shown) [IIh]
// result 122

###

Overview of recorded inhibition at 1.56 µg/mL for various molecules
Study Target: acetylcholinesterase enzyme from electric eel (Electrophorus electricus)
Construct: purchased Sigma-Aldrich CAS Number 9000-81-1 (catalogue number not given)
Procedure Summary: Acetylcholinesterase (AChE) inhibitory assay (DTNB/acetylthiocholine iodide, absorbance at 412 nm)
Format: biochemical
Cond: Conc 1.56 ug/ml
# output: number + unit

Some molecules with known inhibition at 1.56 µg/mL results, for comparison:
                                   molecule         reported_property  recorded_measurement
0  O=C(c1ccccc1)C1C(c2cc3ccccc3s2)C2CSCN2[C@@]12C(=O)Nc1ccccc12 (stereo partly shown)  inhibition at 1.56 µg/mL                 2.76%
1  O=C(c1ccc(C(F)(F)F)cc1)C1C(c2cc3ccccc3s2)C2CSCN2[C@@]12C(=O)Nc1ccccc12 (stereo partly shown)  inhibition at 1.56 µg/mL                 1.68%
2  O=C(c1ccc(Br)cc1)C1C(c2cc3ccccc3s2)C2CSCN2[C@@]12C(=O)Nc1ccc(Cl)cc12 (stereo partly shown)  inhibition at 1.56 µg/mL                 11.6%
3  O=C(c1ccc(Cl)cc1)C1C(c2cc3ccccc3s2)C2CSCN2[C@@]12C(=O)Nc1ccccc12 (stereo partly shown)  inhibition at 1.56 µg/mL                 18.2%
4  O=C(c1ccc(Cl)cc1)C1C(c2cc3ccccc3s2)C2C3CCCCC3CN2[C@@]12C(=O)Nc1ccc(Cl)cc12 (stereo partly shown)  inhibition at 1.56 µg/mL                 16.1%
5  O=C(c1ccccc1)C1C(c2cc3ccccc3s2)C2CSCN2[C@@]12C(=O)Nc1ccc(Cl)cc12 (stereo partly shown)  inhibition at 1.56 µg/mL                 1.68%
6  O=C(c1ccc(C(F)(F)F)cc1)C1C(c2cc3ccccc3s2)C2C3CCCCC3CN2[C@@]12C(=O)Nc1ccc(Cl)cc12 (stereo partly shown)  inhibition at 1.56 µg/mL                 9.95%
7  O=C(c1ccc(F)cc1)C1C(c2cc3ccccc3s2)C2CSCN2[C@@]12C(=O)Nc1ccc(Cl)cc12 (stereo partly shown)  inhibition at 1.56 µg/mL                 23.4%
8  O=C(c1ccccc1)C1C(c2cc3ccccc3s2)C2C3CCCCC3CN2[C@@]12C(=O)Nc1ccc(Cl)cc12 (stereo partly shown)  inhibition at 1.56 µg/mL                 13.9%
9  O=C(c1ccc(C(F)(F)F)cc1)C1C(c2cc3ccccc3s2)C2CSCN2[C@@]12C(=O)Nc1ccc(Cl)cc12 (stereo partly shown)  inhibition at 1.56 µg/mL                 1.23%

// query Tell me its inhibition at 1.56 µg/mL given O=C(c1ccc(Cl)cc1)C1C(c2cc3ccccc3s2)C2CSCN2[C@@]12C(=O)Nc1ccc(Cl)cc12 (stereo partly shown) as the entry.
// result 19.8%

// query Tell me its inhibition at 1.56 µg/mL given O=C(c1ccc(F)cc1)C1C(c2cc3ccccc3s2)C2C3CCCCC3CN2[C@@]12C(=O)Nc1ccc(Cl)cc12 (stereo partly shown) as the entry.
// result 0.46%

// query Tell me its inhibition at 1.56 µg/mL given O=C(c1ccc(Br)cc1)C1C(c2cc3ccccc3s2)C2C3CCCCC3CN2[C@@]12C(=O)Nc1ccc(Cl)cc12 (stereo partly shown) as the entry.
// result 15.6%
